Target: U1A L49F (UniProt P09012 10-89, L49F)
Sequence (P09012 10-89 L49F): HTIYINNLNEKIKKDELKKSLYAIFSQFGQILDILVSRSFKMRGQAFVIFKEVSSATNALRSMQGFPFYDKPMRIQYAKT
Experiment: fluorescence polarization
pKd: −log10 of the molar value.
recordedMetric: pKd

>>> df
                                     binder  reportedresult
0  GGCAGAUCUGAGCCUGGGAGCUCUCUGCC (structured_RNA) [TAR RNA]            4.62
